tested on: KM12
MEASURED_QUANTITY: CC50 (µM)
Write the answer as a number in µM, unit excluded.

Task: Find the recorded CC50 belonging to "C=C1C(=O)O[C@H]2[C@H]1CC/C(COC(=O)c1cc3ccccc3[nH]1)=C\CC[C@@]1(C)O[C@@H]21" and report it.
Result: 15.6

* * *

system: HS 57BT
MEASURED_QUANTITY: CC50

Task: Find the recorded CC50 belonging to "C=C1C(=O)O[C@H]2[C@H]1CC/C(COC(=O)c1cc3ccccc3[nH]1)=C\CC[C@@]1(C)O[C@@H]21" and report it.
Result: > 100 µM

* * *

tested on: HCT-15
MEASURED_QUANTITY: CC50 (nM)
Write the answer as a number in nM, unit excluded.

Task: Find the recorded CC50 belonging to "C=C1C(=O)O[C@H]2[C@H]1CC/C(COC(=O)c1cc3ccccc3[nH]1)=C\CC[C@@]1(C)O[C@@H]21" and report it.
Result: 2430

* * *

tested on: CAKI-1
MEASURED_QUANTITY: CC50 (µM)
Write the answer as a number in µM, unit excluded.

Task: Find the recorded CC50 belonging to "C=C1C(=O)O[C@H]2[C@H]1CC/C(COC(=O)c1cc3ccccc3[nH]1)=C\CC[C@@]1(C)O[C@@H]21" and report it.
Result: 4.82

* * *

tested on: BT-549
MEASURED_QUANTITY: CC50 (µM)
Write the answer as a number in µM, unit excluded.

Task: Find the recorded CC50 belonging to C=C1C(=O)O[C@H]2[C@H]1CC/C(COC(=O)c1cc3ccccc3[nH]1)=C\CC[C@@]1(C)O[C@@H]21 [BS-1-28] and report it.
Result: 2.64

* * *

system: NCI/ADR-RES
MEASURED_QUANTITY: CC50

Task: Find the recorded CC50 belonging to "C=C1C(=O)O[C@H]2[C@H]1CC/C(COC(=O)c1cc3ccccc3[nH]1)=C\CC[C@@]1(C)O[C@@H]21" and report it.
Result: > 100 µM

* * *

tested on: CCRF-CEM
MEASURED_QUANTITY: CC50

Task: Find the recorded CC50 belonging to "C=C1C(=O)O[C@H]2[C@H]1CC/C(COC(=O)c1cc3ccccc3[nH]1)=C\CC[C@@]1(C)O[C@@H]21" and report it.
Result: > 100 µM

* * *

system: SR
MEASURED_QUANTITY: CC50

Task: Find the recorded CC50 belonging to "C=C1C(=O)O[C@H]2[C@H]1CC/C(COC(=O)c1cc3ccccc3[nH]1)=C\CC[C@@]1(C)O[C@@H]21" and report it.
Result: > 100 µM

* * *

test system: SN12C
MEASURED_QUANTITY: CC50 (µM)
Write the answer as a number in µM, unit excluded.

Task: Find the recorded CC50 belonging to "C=C1C(=O)O[C@H]2[C@H]1CC/C(COC(=O)c1cc3ccccc3[nH]1)=C\CC[C@@]1(C)O[C@@H]21" and report it.
Result: 90.5

* * *

test system: HCT-116
MEASURED_QUANTITY: CC50 (nM)
Write the answer as a number in nM, unit excluded.

Task: Param readout= CC50; system= HCT-116; entry= C=C1C(=O)O[C@H]2[C@H]1CC/C(COC(=O)c1cc3ccccc3[nH]1)=C\CC[C@@]1(C)O[C@@H]21 [BS-1-28] ; returns value.
Result: 841
